The reported numbers originate from paper PMC6133092.

Test system: HCT-116, HeLa, MCF-7
test-protocol: MTT assays, mean over three tested cell lines
Type: cell-based
assay-context: Homo sapiens, mean of HCT-116, HeLa, read-out: mean IC50 against three tested cell lines

{"record-smiles": "O=C(Nc1ccccc1)c1cc(S(=O)(=O)Nc2nc(-c3ccccc3)c3ccccc3n2)c(SCc2ccccc2)cc1Cl", "IC50 / µM": 44.7}
{"record-smiles": "O=C(Nc1ccc(Cl)cc1)c1cc(S(=O)(=O)Nc2nc(-c3ccccc3)c3ccccc3n2)c(SCc2ccccc2)cc1Cl", "IC50 / µM": 44.7}
{"record-smiles": "Cc1ccc(NC(=O)c2cc(S(=O)(=O)Nc3nc(-c4ccccc4)c4ccccc4n3)c(SCc3ccccc3)cc2Cl)cc1", "IC50 / µM": 45.7}
{"record-smiles": "Cc1cc(S(=O)(=O)Nc2nc(-c3ccccc3)c3ccccc3n2)c(SCc2cc3c(cc2Cl)OCO3)cc1Cl", "IC50 / µM": 44.7}

----------
System: NCI-H522
test-protocol: NCI-60 single dose screen, NCI-H522
Assay type: cell-based
assay-context: Homo sapiens, NSCLC, single concentration 10^−5 M, read-out: IGP (inhibition growth percent) NCI-H522
Kindly return label 1 if reported inhibition at 10 µM is no lower than 20%; return label 0 if it is lower.

{"record-smiles": "Cc1nc(NS(=O)(=O)c2cc(C(=O)Nc3ccccc3)c(Cl)cc2SCc2ccccc2)nc2ccccc12", "class-assignment": "label 0"}
{"record-smiles": "O=C(Nc1ccc(Cl)cc1)c1cc(S(=O)(=O)Nc2nc(-c3ccccc3)c3ccccc3n2)c(SCc2ccccc2)cc1Cl", "class-assignment": "label 1"}
{"record-smiles": "Cc1cc(S(=O)(=O)Nc2nc(C)c3ccccc3n2)c(SCC(N)=O)cc1Cl", "class-assignment": "label 0"}
{"record-smiles": "Cc1cc(S(=O)(=O)Nc2nc(C)c3ccccc3n2)c(SCc2cc3c(cc2Cl)OCO3)cc1Cl", "class-assignment": "label 0"}
{"record-smiles": "Cc1cc(S(=O)(=O)Nc2nc(C)c3ccccc3n2)c(SCc2ccccc2)cc1Cl", "class-assignment": "label 0"}
{"record-smiles": "Cc1nc(NS(=O)(=O)c2cc(C(=O)Nc3ccc(Cl)cc3)c(Cl)cc2SCC(N)=O)nc2ccccc12", "class-assignment": "label 0"}

----------
test-protocol: Metabolic stability in human liver microsomes with NADPH
Assay type: in vitro ADME
assay-context: pooled human liver microsomes, pH 7.4, human liver microsomes 0.5 mg/cm^3, NADPH 1 mM, 10 μM compound, 37 °C, read-out: in vitro metabolic half-life t1/2
Each entry gets Condition not met if its half-life at 10 μM stays under 50 min, and Condition met if its half-life at 10 μM is 50 min or above.

{"compound": "Cc1ccc(NC(=O)c2cc(S(=O)(=O)Nc3nc(-c4ccccc4)c4ccccc4n3)c(SCc3ccccc3)cc2Cl)cc1 [Compound 24]", "class-assignment": "Condition not met"}
{"compound": "Cc1cc(S(=O)(=O)Nc2nc(C)c3ccccc3n2)c(SCc2cc3c(cc2Cl)OCO3)cc1Cl [Compound 11]", "class-assignment": "Condition met"}
{"compound": "Cc1cc(S(=O)(=O)Nc2nc(-c3ccccc3)c3ccccc3n2)c(SCC(N)=O)cc1Cl [Compound 14]", "class-assignment": "Condition met"}
{"compound": "Cc1nc(NS(=O)(=O)c2cc(C(=O)Nc3ccc(Cl)cc3)c(Cl)cc2SCc2ccccc2)nc2ccccc12 [Compound 21]", "class-assignment": "Condition not met"}
{"compound": "O=C(Nc1ccccc1)c1cc(S(=O)(=O)Nc2nc(-c3ccccc3)c3ccccc3n2)c(SCc2ccccc2)cc1Cl [Compound 18]", "class-assignment": "Condition not met"}
{"compound": "Cc1cc(S(=O)(=O)Nc2nc(C)c3ccccc3n2)c(SCC(N)=O)cc1Cl [Compound 13]", "class-assignment": "Condition met"}
{"compound": "Cc1cc(S(=O)(=O)Nc2nc(-c3ccccc3)c3ccccc3n2)c(SCc2cc3c(cc2Cl)OCO3)cc1Cl [Compound 12]", "class-assignment": "Condition not met"}
{"compound": "Cc1cc(S(=O)(=O)Nc2nc(C)c3ccccc3n2)c(SCc2ccccc2)cc1Cl [Compound 9]", "class-assignment": "Condition met"}
{"compound": "Cc1nc(NS(=O)(=O)c2cc(C(=O)Nc3ccccc3)c(Cl)cc2SCc2ccccc2)nc2ccccc12 [Compound 17]", "class-assignment": "Condition not met"}
{"compound": "Cc1ccc(NC(=O)c2cc(S(=O)(=O)Nc3nc(C)c4ccccc4n3)c(SCc3ccccc3)cc2Cl)cc1 [Compound 23]", "class-assignment": "Condition not met"}
{"compound": "O=C(Nc1ccc(Cl)cc1)c1cc(S(=O)(=O)Nc2nc(-c3ccccc3)c3ccccc3n2)c(SCc2ccccc2)cc1Cl [Compound 22]", "class-assignment": "Condition met"}

----------
measurement-label: melting point

{"record-smiles": "Cc1cc(S(=O)(=O)Nc2nc(-c3ccccc3)c3ccccc3n2)c(SCc2ccccc2)cc1Cl", "measured": "192 to 198 °C"}
{"record-smiles": "CCOC(=O)CSc1cc(Cl)c(C)cc1S(=O)(=O)Nc1nc(C)c2ccccc2n1", "measured": "192 to 194 °C"}
{"record-smiles": "Cc1cc(S(=O)(=O)Nc2nc(C)c3ccccc3n2)c(SCC(N)=O)cc1Cl", "measured": "232 to 235 °C (dec.)"}
{"record-smiles": "CCOC(=O)CSc1cc(Cl)c(C)cc1S(=O)(=O)Nc1nc(-c2ccccc2)c2ccccc2n1", "measured": "162 to 165 °C"}

----------
Test system: MOLT-4
test-protocol: NCI-60 single dose screen, MOLT-4
Type: cell-based
assay-context: Homo sapiens, Leukemia, single concentration 10^−5 M, read-out: IGP (inhibition growth percent) MOLT-4
Protocol: Aside from above, compounds 9–14 and 17–24 were also submitted to National Cancer Institute and evaluated for the cytotoxic effects toward 60 cell lines at a single dose of 10 μM (Table 2). […] As it was summarized in Table 2, leukemia RPMI-8226 and NSCLC A549/ATCC were most sensitive to compounds 18, 22, and 24. These derivatives in 10 μM concentration inhibited the growth of approximately 50% cells belonging to the above mention cell lines. […]
# label = yes (1) if inhibition at 10 µM >= 7% else no (0)

{"record-smiles": "Cc1nc(NS(=O)(=O)c2cc(C(=O)Nc3ccccc3)c(Cl)cc2SCc2ccccc2)nc2ccccc12", "target-of-assay": "MOLT-4", "class-assignment": "yes (1)"}
{"record-smiles": "Cc1cc(S(=O)(=O)Nc2nc(C)c3ccccc3n2)c(SCC(N)=O)cc1Cl", "target-of-assay": "MOLT-4", "class-assignment": "yes (1)"}
{"record-smiles": "Cc1nc(NS(=O)(=O)c2cc(C(=O)Nc3ccc(Cl)cc3)c(Cl)cc2SCC(N)=O)nc2ccccc12", "target-of-assay": "MOLT-4", "class-assignment": "no (0)"}
{"record-smiles": "O=C(Nc1ccc(Cl)cc1)c1cc(S(=O)(=O)Nc2nc(-c3ccccc3)c3ccccc3n2)c(SCc2ccccc2)cc1Cl", "target-of-assay": "MOLT-4", "class-assignment": "yes (1)"}
{"record-smiles": "Cc1ccc(NC(=O)c2cc(S(=O)(=O)Nc3nc(C)c4ccccc4n3)c(SCc3ccccc3)cc2Cl)cc1", "target-of-assay": "MOLT-4", "class-assignment": "no (0)"}
{"record-smiles": "Cc1cc(S(=O)(=O)Nc2nc(-c3ccccc3)c3ccccc3n2)c(SCc2ccccc2)cc1Cl", "target-of-assay": "MOLT-4", "class-assignment": "yes (1)"}
{"record-smiles": "O=C(Nc1ccccc1)c1cc(S(=O)(=O)Nc2nc(-c3ccccc3)c3ccccc3n2)c(SCc2ccccc2)cc1Cl", "target-of-assay": "MOLT-4", "class-assignment": "yes (1)"}
{"record-smiles": "Cc1cc(S(=O)(=O)Nc2nc(C)c3ccccc3n2)c(SCc2ccccc2)cc1Cl", "target-of-assay": "MOLT-4", "class-assignment": "yes (1)"}
{"record-smiles": "NC(=O)CSc1cc(Cl)c(C(=O)Nc2ccc(Cl)cc2)cc1S(=O)(=O)Nc1nc(-c2ccccc2)c2ccccc2n1", "target-of-assay": "MOLT-4", "class-assignment": "no (0)"}

----------
Listing: activity against HCT-116 fold higher compared with HaCaT of selected molecules
Test system: HaCaT
test-protocol: Cytotoxic effect against non-carcinogenic cell line HaCaT
Assay type: cell-based
assay-context: selectivity HCT-116 vs HaCaT
measurement-label: activity against HCT-116 fold higher compared with HaCaT

{"record-smiles": "Cc1cc(S(=O)(=O)Nc2nc(-c3ccccc3)c3ccccc3n2)c(SCc2cc3c(cc2Cl)OCO3)cc1Cl", "measured": "1.7 fold"}
{"record-smiles": "O=C(Nc1ccc(Cl)cc1)c1cc(S(=O)(=O)Nc2nc(-c3ccccc3)c3ccccc3n2)c(SCc2ccccc2)cc1Cl", "measured": "1.5 fold"}
{"record-smiles": "Cc1ccc(NC(=O)c2cc(S(=O)(=O)Nc3nc(-c4ccccc4)c4ccccc4n3)c(SCc3ccccc3)cc2Cl)cc1", "measured": "1.4 fold"}
{"record-smiles": "O=C(Nc1ccccc1)c1cc(S(=O)(=O)Nc2nc(-c3ccccc3)c3ccccc3n2)c(SCc2ccccc2)cc1Cl", "measured": "1.6 fold"}
